- test name: Biodistribution of NBMI in plasma and tissues after oral gavage
- Format: in vivo, rat (Sprague Dawley)
- settings: male, Sprague Dawley, rat, plasma, po, 100 mg kg^−1
parameter measured: concentration at 8 h (ng/mL)
Your answer should be a plain number; it is taken to be in ng/mL.

Note to self: concentration at 8 h recorded for O=C(NCCS)c1cccc(C(=O)NCCS)c1 [NBMI, N,N′-bis(2-mercaptoethyl)isophthalamide] was 391

###

- test name: Biodistribution of NBMI in plasma and tissues after oral gavage
- Format: in vivo, rat (Sprague Dawley)
- settings: male, Sprague Dawley, rat, brain, po, 100 mg kg^−1
parameter measured: concentration at 2 h (ng/g)
Form entry: value (ng/g) — number only.

For O=C(NCCS)c1cccc(C(=O)NCCS)c1 [NBMI, N,N′-bis(2-mercaptoethyl)isophthalamide] the molecule record lists concentration at 2 h as 51.8

###

- test name: Biodistribution of NBMI in plasma and tissues after oral gavage
- Format: in vivo, rat (Sprague Dawley)
- settings: male, Sprague Dawley, rat, plasma, po, 100 mg kg^−1
parameter measured: concentration at 1 h (ng/mL)
Write the number in ng/mL without appending the unit.

The reported concentration at 1 h of the compound O=C(NCCS)c1cccc(C(=O)NCCS)c1 [NBMI, N,N′-bis(2-mercaptoethyl)isophthalamide] was 588

###

- test name: Biodistribution of NBMI in plasma and tissues after oral gavage
- Assay type: in vivo, rat (Sprague Dawley)
- settings: male, Sprague Dawley, rat, kidney, po, 100 mg kg^−1
parameter measured: concentration at 2 h (ng/g)
Response body: numeric value in ng/g, unit text excluded.

Note to self: concentration at 2 h recorded for O=C(NCCS)c1cccc(C(=O)NCCS)c1 [NBMI, N,N′-bis(2-mercaptoethyl)isophthalamide] was 145

###

- test name: Biodistribution of NBMI in plasma and tissues after oral gavage
- Format: in vivo, rat (Sprague Dawley)
- settings: male, Sprague Dawley, rat, kidney, po, 100 mg kg^−1
parameter measured: concentration at 8 h (ng/g)
Only the number, expressed in ng/g, is required.

The value of concentration at 8 h measured for the molecule O=C(NCCS)c1cccc(C(=O)NCCS)c1 [NBMI, N,N′-bis(2-mercaptoethyl)isophthalamide] turned out to be 45.1

###

- test name: Oral absorption, plasma pharmacokinetics after oral gavage
- Type: in vivo, rat (Sprague-Dawley)
- settings: male, Sprague-Dawley, rat, plasma, po, 35 mg/kg
parameter measured: half-life (h)
Output spec: scalar in h, unitless text.

The measured half-life associated with O=C(NCCS)c1cccc(C(=O)NCCS)c1 [NBMI, N,N′-bis(2-mercaptoethyl)isophthalamide] reads 5.6

###

- test name: Biodistribution of NBMI in plasma and tissues after oral gavage
- Format: in vivo, rat (Sprague Dawley)
- settings: male, Sprague Dawley, rat, liver, po, 100 mg kg^−1
parameter measured: concentration at 2 h (ng/g)
Numbers only here, please. The scale is ng/g.

Value of measured concentration at 2 h for the entry O=C(NCCS)c1cccc(C(=O)NCCS)c1 [NBMI, N,N′-bis(2-mercaptoethyl)isophthalamide] : 272

###

- test name: Biodistribution of NBMI in plasma and tissues after oral gavage
- Type: in vivo, rat (Sprague Dawley)
- settings: male, Sprague Dawley, rat, plasma, po, 100 mg kg^−1
parameter measured: concentration at 2 h (ng/mL)
Value expressed in ng/mL; do not type the unit.

The measured concentration at 2 h associated with O=C(NCCS)c1cccc(C(=O)NCCS)c1 [NBMI, N,N′-bis(2-mercaptoethyl)isophthalamide] reads 883
